These measurements were taken from ChEMBL document CHEMBL1132173.

biological target: Adrenergic receptor alpha-1 (Rattus norvegicus, UniProt P15823+P23944+P43140); experiment: Binding affinity towards Alpha-1 adrenergic receptor using prazosin as a radioligand in rat cortex
Can you tell me Log Ki for the items I'm about to list?
Answers are plain numbers.

Reference set (6 entries):
O=C(c1ccc(F)c(Cl)c1)N1CCC(F)(CNCc2cccc(-c3ccco3)n2)CC1    -6.12
CN(C)c1cccc(CNCC2(F)CCN(C(=O)c3ccc(Cl)c(Cl)c3)CC2)n1    -6.76
CNc1cccc(CNCC2(F)CCN(C(=O)c3ccc(Cl)c(Cl)c3)CC2)n1    -6.92
O=C(c1ccc(Cl)c(Cl)c1)N1CCC(F)(CNCc2cccc(-c3cccs3)n2)CC1    -6.72
CN(C)c1cccc(CNCC2(F)CCN(C(=O)c3ccc(F)c(Cl)c3)CC2)n1    -6.68
O=C(c1ccc(Cl)c(Cl)c1)N1CCC(F)(CNCc2cccc(-c3cc[nH]n3)n2)CC1    -6.1

List reported Log Ki for each of these compounds:
1. CN(C)c1cccc(CNCC2(F)CCN(C(=O)c3cccc(Cl)c3)CC2)n1
2. O=C(c1ccc(Cl)c(Cl)c1)N1CCC(F)(CNCc2cccc(N3CCC3)n2)CC1
3. O=C(c1ccc(Cl)c(Cl)c1)N1CCC(F)(CNCc2cccc(-c3nccs3)n2)CC1

Result:
-6.81
-6.35
-6.26

List reported Log Ki for each of these compounds:
1. O=C(c1ccc(Cl)c(Cl)c1)N1CCC(F)(CNCc2cccc(-c3ccco3)n2)CC1
2. Cc1ccc(C(=O)N2CCC(F)(CNCc3cccc(N(C)C)n3)CC2)cc1Cl
3. O=C(c1ccc(Cl)c(Cl)c1)N1CCC(F)(CNCc2cccc(-c3cnco3)n2)CC1

Result:
1. -6.39
2. -6.86
3. -5.9

* * *

Target: 5-hydroxytryptamine receptor 1A (Homo sapiens, UniProt P08908)
Sequence (P08908 whole entry): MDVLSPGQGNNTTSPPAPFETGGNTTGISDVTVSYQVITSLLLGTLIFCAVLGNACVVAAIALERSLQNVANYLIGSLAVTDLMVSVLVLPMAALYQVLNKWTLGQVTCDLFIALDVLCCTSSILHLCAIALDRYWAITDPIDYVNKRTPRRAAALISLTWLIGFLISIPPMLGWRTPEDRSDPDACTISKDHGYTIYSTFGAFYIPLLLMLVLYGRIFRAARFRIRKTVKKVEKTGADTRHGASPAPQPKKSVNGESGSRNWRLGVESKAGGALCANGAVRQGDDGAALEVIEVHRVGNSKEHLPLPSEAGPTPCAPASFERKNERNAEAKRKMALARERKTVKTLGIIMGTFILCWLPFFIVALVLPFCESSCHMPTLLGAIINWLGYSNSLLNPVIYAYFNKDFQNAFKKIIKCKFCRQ
Test: In vitro effective concentration required to inhibit forskolin-stimulated cAMP levels in HA7 cells expressing human 5-HT1A receptor
Quantity Kind: EC50 (nM)
Answers are plain numbers, in nM.

O=C(c1ccc(Cl)c(Cl)c1)N1CCC(CNCc2cccc(-c3cccs3)n2)CC1    5.75
CNc1nc(CNCC2(F)CCN(C(=O)c3ccc(F)c(Cl)c3)CC2)ccc1C    2.14
Cc1ccc(N(C)C)nc1CNCC1(F)CCN(C(=O)c2ccc(F)c(Cl)c2)CC1    47.9
O=C(c1ccc(Cl)c(Cl)c1)N1CCC(CF)(CNCc2cccc(-n3cccn3)n2)CC1    309
Cc1ccc(CNCC2(F)CCN(C(=O)c3ccc(Cl)c(Cl)c3)CC2)nc1    20.9

List reported EC50 for each of these molecules:
1. CCN(CC)c1nc(CNCC2(F)CCN(C(=O)c3ccc(F)c(Cl)c3)CC2)ccc1C
2. CN(C)c1cccc(CNCC2(F)CCN(C(=O)c3ccc(F)c(Cl)c3)CC2)n1
3. O=C(c1ccc(F)c(Cl)c1)N1CCC(F)(CNCc2cccc(-n3cccn3)n2)CC1
4. CCc1ccc(CNCC2(F)CCN(C(=O)c3ccc(F)c(Cl)c3)CC2)nc1
5. Cc1ccc(C(=O)N2CCC(F)(CNCc3cccc(N(C)C)n3)CC2)cc1Cl

Result:
28.8
3.63
12.3
407
5.75

Ask: So what does the record say about EC50 for N#CC1(CNCc2cccc(-n3cccn3)n2)CCN(C(=O)c2ccc(Cl)c(Cl)c2)CC1 ?
Result: 162

* * *

tested on: Rattus norvegicus; assay: Effective intraperitoneal dose in vivo in rat after 15 mins to induce lower lip retraction; format: functional; conditions: ip, 0.25 h
Can you tell me log10 of ED50 for the items I'm about to list?
Hello, just confirming the data are log10 of ED50 with units of mg/kg.

Reference set (5 entries):
Cc1ccc(CNCC2(F)CCN(C(=O)c3ccc(F)c(Cl)c3)CC2)nc1-n1cccn1    -0.49
O=C(c1ccc(Cl)c(Cl)c1)N1CCC(F)(CNCc2cccc(-c3cccs3)n2)CC1    -0.49
CNc1nc(CNCC2(F)CCN(C(=O)c3ccc(F)c(Cl)c3)CC2)ccc1C    -1.70
CCN(CC)c1nc(CNCC2(F)CCN(C(=O)c3ccc(F)c(Cl)c3)CC2)ccc1C    -0.49
Cc1ccc(CNCC2(F)CCN(C(=O)c3ccc(F)c(Cl)c3)CC2)nc1 [BEFIRADOL]    -1.10

List reported log10 of ED50 for each of these molecules:
1. O=C(c1ccc(Cl)c(Cl)c1)N1CCC(F)(CNCc2ccccn2)CC1
2. CNc1cccc(CNCC2(F)CCN(C(=O)c3ccc(Cl)c(Cl)c3)CC2)n1
3. CN(C)c1cccc(CNCC2(F)CCN(C(=O)c3ccc(Cl)c(Cl)c3)CC2)n1

Result:
1: -0.96; 2: -0.96; 3: -0.21

List reported log10 of ED50 for each of these molecules:
1. O=C(c1ccc(F)c(Cl)c1)N1CCC(F)(CNCc2cccc(-n3cccn3)n2)CC1
2. Cc1ccc(C(=O)N2CCC(F)(CNCc3cccc(N(C)C)n3)CC2)cc1Cl
3. CCNc1cccc(CNCC2(F)CCN(C(=O)c3ccc(F)c(Cl)c3)CC2)n1
4. O=C(c1ccc(Cl)c(Cl)c1)N1CCC(F)(CNCc2cccc(-c3nccs3)n2)CC1
5. CNc1cccc(CNCC2(F)CCN(C(=O)c3ccc(F)c(Cl)c3)CC2)n1
6. O=C(c1ccc(F)c(Cl)c1)N1CCC(F)(CNCc2cccc(-c3cc[nH]n3)n2)CC1
7. O=C(c1ccc(Cl)c(Cl)c1)N1CCC(F)(CNCc2cccc(N3CCC3)n2)CC1
8. Cc1ccc(CNCC2(F)CCN(C(=O)c3ccc(F)c(Cl)c3)CC2)nc1-c1cc[nH]n1

Result:
-0.49
-1.10
-0.96
-0.35
-0.96
-0.49
-0.49
-0.49

* * *

Can you tell me EC50 for the items I'm about to list?
target: 5-hydroxytryptamine receptor 1A (Homo sapiens, UniProt P08908); experiment: In vitro effective concentration required to inhibit forskolin-stimulated cAMP levels in HA7 cells expressing human 5-HT1A receptor
Numbers only, in nM.

Reference set (5 entries):
O=C(c1ccc(Cl)c(Cl)c1)N1CC=C(CNCc2cccc(-n3cccn3)n2)CC1    269
Cc1ccc(CNCC2(F)CCN(C(=O)c3ccc(F)c(Cl)c3)CC2)nc1N(C)C    3.72
Cc1ccc(CNCC2(F)CCN(C(=O)c3ccc(F)c(Cl)c3)CC2)nc1-c1cc[nH]n1    2.75
O=C(c1ccc(Cl)c(Cl)c1)N1CCC(O)(CNCc2cccc(-n3cccn3)n2)CC1    39.8
Cc1cc(CNCC2(F)CCN(C(=O)c3ccc(F)c(Cl)c3)CC2)nc(N(C)C)c1    33.1

List reported EC50 for each of these molecules:
1. CNc1cccc(CNCC2(F)CCN(C(=O)c3ccc(Cl)c(Cl)c3)CC2)n1
2. O=C(c1ccc(Cl)c(Cl)c1)N1CCC(F)(CNCc2cccc(-n3cccn3)n2)CC1
3. O=C(c1ccc(F)c(Cl)c1)N1CCC(F)(CNCc2cccc(-c3ccco3)n2)CC1
4. O=C(c1ccc(F)c(Cl)c1)N1CCC(F)(CNCc2cccc(-c3cc[nH]n3)n2)CC1

Result:
6.61
28.2
3.47
0.724

* * *

Biological target: 5-hydroxytryptamine receptor 1A (Rattus norvegicus, UniProt P19327)
Sequence (P19327 whole entry): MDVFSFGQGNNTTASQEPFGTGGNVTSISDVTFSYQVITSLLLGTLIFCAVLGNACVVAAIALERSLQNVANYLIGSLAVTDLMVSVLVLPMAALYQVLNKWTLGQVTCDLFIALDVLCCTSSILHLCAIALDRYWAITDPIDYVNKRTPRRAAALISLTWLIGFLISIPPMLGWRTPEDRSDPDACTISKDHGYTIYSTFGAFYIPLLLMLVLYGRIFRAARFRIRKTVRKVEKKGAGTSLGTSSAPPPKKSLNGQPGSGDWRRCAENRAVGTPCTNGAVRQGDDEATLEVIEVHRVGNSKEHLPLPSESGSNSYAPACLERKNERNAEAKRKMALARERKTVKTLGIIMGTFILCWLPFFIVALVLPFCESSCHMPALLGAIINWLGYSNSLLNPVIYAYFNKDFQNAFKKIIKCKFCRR
Can you tell me Ki for the items I'm about to list?
Numbers only, in nM.

Reference set (2 entries):
Cc1ccc(CNCC2(F)CCN(C(=O)c3ccc(F)c(Cl)c3)CC2)nc1-c1cc[nH]n1    2.19
O=C(c1ccc(Cl)c(Cl)c1)N1CCC(O)(CNCc2cccc(-n3cccn3)n2)CC1    1.62

Ask: So what does the record say about Ki for O=C(c1ccc(Cl)c(Cl)c1)N1CCC(F)(CNCc2cccc(-c3cc[nH]n3)n2)CC1 ?
Result: 0.302
